Data credit: patent US7544689B2

# tested-on: CDK1/cyclin B (Homo sapiens, UniProt P06493)
# Construct: His6; made in house; host or cells: Sf9 insect cells (baculovirus)
# Sequence (P06493 whole entry): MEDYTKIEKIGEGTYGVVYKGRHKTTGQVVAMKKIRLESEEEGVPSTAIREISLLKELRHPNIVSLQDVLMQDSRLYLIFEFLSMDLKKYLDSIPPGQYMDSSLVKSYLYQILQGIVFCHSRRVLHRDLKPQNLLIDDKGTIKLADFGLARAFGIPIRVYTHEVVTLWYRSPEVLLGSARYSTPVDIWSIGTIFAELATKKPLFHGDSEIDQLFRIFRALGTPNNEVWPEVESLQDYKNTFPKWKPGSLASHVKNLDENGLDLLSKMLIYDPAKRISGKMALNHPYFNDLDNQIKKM
# Sequence (P14635 whole entry partner): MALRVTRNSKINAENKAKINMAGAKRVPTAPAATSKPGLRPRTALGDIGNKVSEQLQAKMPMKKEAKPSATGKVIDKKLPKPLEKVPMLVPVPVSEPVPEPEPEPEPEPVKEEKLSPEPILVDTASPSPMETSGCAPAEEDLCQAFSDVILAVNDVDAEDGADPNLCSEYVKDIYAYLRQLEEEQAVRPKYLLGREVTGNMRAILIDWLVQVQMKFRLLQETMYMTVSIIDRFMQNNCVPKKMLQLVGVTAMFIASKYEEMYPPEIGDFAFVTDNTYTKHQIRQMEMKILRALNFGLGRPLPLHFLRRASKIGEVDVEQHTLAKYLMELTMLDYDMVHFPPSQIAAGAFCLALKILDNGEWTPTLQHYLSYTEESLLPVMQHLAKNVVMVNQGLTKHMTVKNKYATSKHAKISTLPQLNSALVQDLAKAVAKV
# method-summary: Kinase assay, CDK1/cyclin B inhibition
# Type: biochemical
endpoint: IC50 (µM)

Answered examples (2):
CCC(O)[C@H](CC)Nc1nc(NCc2ccccn2)c2ncn(C(C)C)c2n1 (mixture of isomers)    40
CC[C@@H](Nc1nc(NCc2ccccn2)c2ncn(C(C)C)c2n1)C(C)(C)O    44

I = CC[C@@H](Nc1nc(NCc2ccccn2)c2ncn(C(C)C)c2n1)C(O)C(C)C (mixture of isomers)
II = CC[C@@H](Nc1nc(NCc2ccccn2)c2ncn(C(C)C)c2n1)[C@H](C)O
Query :: Two entries are listed, I and II . Which one carries the higher IC50? # answer = label of selected item
Result :: I
(I: 84 µM, II: 39 µM)

* * *

IC50 by entry:
# tested-on: ERK2 (Homo sapiens)
# Construct: purchased Upstate Biotechnology
# Sequence (P28482 whole entry, species assumed): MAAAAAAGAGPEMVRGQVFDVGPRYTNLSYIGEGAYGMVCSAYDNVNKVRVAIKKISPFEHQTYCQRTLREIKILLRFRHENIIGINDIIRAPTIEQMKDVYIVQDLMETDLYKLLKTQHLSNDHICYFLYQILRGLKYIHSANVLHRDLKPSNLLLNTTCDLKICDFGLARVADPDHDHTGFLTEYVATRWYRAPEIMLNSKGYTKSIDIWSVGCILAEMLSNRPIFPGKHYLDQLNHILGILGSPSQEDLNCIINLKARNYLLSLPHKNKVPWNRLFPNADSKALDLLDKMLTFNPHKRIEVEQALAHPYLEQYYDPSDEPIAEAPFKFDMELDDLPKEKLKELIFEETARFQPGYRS
# method-summary: Kinase assay, ERK-2 inhibition
# Assay type: biochemical

Answered examples (2):
CC[C@H](Nc1nc(NCc2ccccn2)c2ncn(C(C)C)c2n1)C(O)C(C)C (mixture of isomers)    > 200 µM
CC[C@@H](Nc1nc(NCc2ccccn2)c2ncn(C(C)C)c2n1)C(C)(C)O    > 200 µM

Please turn your attention to the following entry.
Query :: # input compound: CCC(O)[C@@H](CC)Nc1nc(NCc2ccccn2)c2ncn(C(C)C)c2n1 (mixture of isomers) ; wanted: its IC50
Result :: 230 µM

* * *

# tested-on: CDK7/cyclin H (Homo sapiens, UniProt P50613)
# Construct: His6
# Sequence (P50613 whole entry): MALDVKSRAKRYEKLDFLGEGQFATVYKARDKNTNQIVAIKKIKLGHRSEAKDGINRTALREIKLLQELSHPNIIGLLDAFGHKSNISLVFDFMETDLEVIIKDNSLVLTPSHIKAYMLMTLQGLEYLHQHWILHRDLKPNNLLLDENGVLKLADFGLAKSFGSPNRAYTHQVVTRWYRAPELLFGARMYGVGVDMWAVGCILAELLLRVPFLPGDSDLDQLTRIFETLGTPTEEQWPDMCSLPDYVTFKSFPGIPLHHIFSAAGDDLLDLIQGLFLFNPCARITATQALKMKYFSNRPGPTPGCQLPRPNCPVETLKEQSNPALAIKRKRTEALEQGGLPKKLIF
# Sequence (P51946 whole entry partner): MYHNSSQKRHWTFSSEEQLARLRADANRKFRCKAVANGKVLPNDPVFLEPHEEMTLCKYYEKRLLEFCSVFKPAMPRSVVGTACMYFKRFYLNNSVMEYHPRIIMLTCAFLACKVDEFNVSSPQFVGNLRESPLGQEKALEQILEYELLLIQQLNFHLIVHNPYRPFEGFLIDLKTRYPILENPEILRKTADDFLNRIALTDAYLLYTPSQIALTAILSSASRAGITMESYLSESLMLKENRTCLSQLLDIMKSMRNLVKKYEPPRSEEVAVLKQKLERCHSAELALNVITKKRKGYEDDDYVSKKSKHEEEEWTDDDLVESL
# method-summary: Kinase assay, CDK7/cyclin H inhibition
endpoint: IC50 (nM)

Answered examples (6):
CC[C@@H](Nc1nc(NCc2ccccn2)c2ncn(C(C)C)c2n1)C(O)C(C)(C)C (mixture of isomers)    2400
CC[C@@H](Nc1nc(NCc2ccccn2)c2ncn(C(C)C)c2n1)C(C)(C)O    4200
CC[C@@H](Nc1nc(NCc2ccccn2)c2ncn(C(C)C)c2n1)C(O)C(C)C (mixture of isomers)    3900
CC[C@H](Nc1nc(NCc2ccccn2)c2ncn(C(C)C)c2n1)C(O)C(C)(C)C (mixture of isomers)    5800
CC[C@H](Nc1nc(NCc2ccccn2)c2ncn(C(C)C)c2n1)C(O)C(C)C (mixture of isomers)    3300
CCC(O)[C@H](CC)Nc1nc(NCc2ccccn2)c2ncn(C(C)C)c2n1 (mixture of isomers)    2600

P = CC[C@H](Nc1nc(NCc2ccccn2)c2ncn(C(C)C)c2n1)[C@@H](C)O
Q = CC[C@@H](Nc1nc(NCc2ccccn2)c2ncn(C(C)C)c2n1)[C@H](C)O
R = CCC(O)[C@@H](CC)Nc1nc(NCc2ccccn2)c2ncn(C(C)C)c2n1 (mixture of isomers)
Query :: Order the records, beginning with the lowest IC50 and ending with the highest. Ranked list of labels, please, in the requested order.
Result :: Q, R, P
(Q: 550 nM, R: 1200 nM, P: 2600 nM)

* * *

# tested-on: CDK4/cyclin D1 (Homo sapiens)
# Construct: His6; cyclin D1: E. coli
# Sequence (P11802 whole entry): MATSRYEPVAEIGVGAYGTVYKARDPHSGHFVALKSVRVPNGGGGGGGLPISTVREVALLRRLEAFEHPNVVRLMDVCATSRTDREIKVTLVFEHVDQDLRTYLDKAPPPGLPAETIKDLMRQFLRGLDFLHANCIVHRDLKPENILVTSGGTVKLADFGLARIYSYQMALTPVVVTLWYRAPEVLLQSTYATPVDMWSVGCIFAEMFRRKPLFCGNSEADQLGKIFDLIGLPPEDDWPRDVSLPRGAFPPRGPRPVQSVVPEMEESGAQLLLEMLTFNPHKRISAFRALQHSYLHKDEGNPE
# Sequence (P24385 whole entry partner): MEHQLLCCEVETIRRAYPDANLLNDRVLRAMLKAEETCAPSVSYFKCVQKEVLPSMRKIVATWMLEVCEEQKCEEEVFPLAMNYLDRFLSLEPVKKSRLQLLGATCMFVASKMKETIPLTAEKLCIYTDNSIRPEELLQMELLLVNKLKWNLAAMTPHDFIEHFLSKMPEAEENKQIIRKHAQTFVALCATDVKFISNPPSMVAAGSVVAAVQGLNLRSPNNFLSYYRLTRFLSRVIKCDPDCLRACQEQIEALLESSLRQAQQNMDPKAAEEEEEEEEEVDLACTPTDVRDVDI
# method-summary: Kinase assay, CDK4/cyclin D1 inhibition
pIC50: −log10 of the molar value.
endpoint: pIC50

Answered examples (2):
CCC(O)[C@@H](CC)Nc1nc(NCc2ccccn2)c2ncn(C(C)C)c2n1 (mixture of isomers)    4.70
CC[C@H](Nc1nc(NCc2ccccn2)c2ncn(C(C)C)c2n1)C(O)C(C)(C)C (mixture of isomers)    4.66

1 = CCC(O)[C@H](CC)Nc1nc(NCc2ccccn2)c2ncn(C(C)C)c2n1 (mixture of isomers)
2 = CC[C@H](Nc1nc(NCc2ccccn2)c2ncn(C(C)C)c2n1)C(O)C(C)C (mixture of isomers)
Query :: Which value of pIC50 is smaller, the one for 1 or the one for 2 ? # answer = label of selected item
Result :: 2
(2: 4.31, 1: 4.62)
